Target: UniProtKB P05177
Sequence (P05177 whole entry): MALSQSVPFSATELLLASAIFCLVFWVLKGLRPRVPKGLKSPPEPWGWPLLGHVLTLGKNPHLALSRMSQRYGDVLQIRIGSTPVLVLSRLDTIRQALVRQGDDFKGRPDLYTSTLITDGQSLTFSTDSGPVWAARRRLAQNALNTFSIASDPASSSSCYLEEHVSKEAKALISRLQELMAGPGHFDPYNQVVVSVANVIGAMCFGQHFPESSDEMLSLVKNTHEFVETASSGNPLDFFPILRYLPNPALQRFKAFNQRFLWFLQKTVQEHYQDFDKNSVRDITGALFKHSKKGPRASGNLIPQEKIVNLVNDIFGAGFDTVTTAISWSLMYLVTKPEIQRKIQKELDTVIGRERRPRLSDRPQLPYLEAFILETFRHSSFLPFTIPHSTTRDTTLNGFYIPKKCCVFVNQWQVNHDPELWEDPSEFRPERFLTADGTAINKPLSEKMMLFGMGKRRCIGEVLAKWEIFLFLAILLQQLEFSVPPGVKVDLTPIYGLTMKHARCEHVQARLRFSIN
Assay: Inhibition of CYP1A2 at 10 uM
Format: ADME
measured attribute: inhibition at 10 µM
Could you give the number and then its unit, please?

input: Quick one: inhibition at 10 µM of COc1ccc2c(c1CN1CCNCC1)O/C(=C\c1n[nH]c3ccccc13)C2=O ?
output: 33%

* * *

Assay: Metabolic stability in human liver microsomes assessed as compound remaining at 1 uM after 1 hr
Assay type: ADME, Microsome
Conditions: read-out: Stability
Exercise: state measured remaining at 1 h, 1 µM for each of the compounds provided.

Consider the worked cases shown below.
INSERT INTO measurements (compound_smiles, result) VALUES
  ('O=C1/C(=C/c2c[nH]c3ccccc23)Oc2c1ccc(O)c2CN1CCCCCC1', '36%'),
  ('COc1ccc2c(c1CN1CCNCC1)O/C(=C\c1c[nH]c3ccccc13)C2=O', '82%'),
  ('COc1ccc2c(c1CN1CCNCC1)O/C(=C\c1n[nH]c3ccccc13)C2=O', '> 99%');

Next item in the queue.
input: Quick one: remaining at 1 h, 1 µM of O=C1/C(=C/c2c[nH]c3ccccc23)Oc2c1ccc(O)c2CN1CCNCC1 ?
output: 90%
